Counter-ions that a name gives are not always drawn.
Decision: melting point >= 300 °C yields Condition met, all other cases yield Condition not met.

>>> answer_label("CN(C)CCNC(=O)c1cccc(-c2nc(C(=O)c3ccc4c(c3)c(=O)n(Cc3ccc(F)cc3)c(=O)n4C)n3ccccc23)c1.Cl")
"Condition not met"

Request: Decide: is the reported value of melting point for `Cl.Cn1c(=O)n(Cc2ccc(F)cc2)c(=O)c2cc(C(=O)c3nc(-c4cccc(C(=O)OCCN5CCOCC5)c4)c4ccccn34)ccc21` equal to or greater than 300 °C?
Result: Condition not met

Request: Does the compound `CCCn1c(=O)[nH]c2ccc(C(=O)c3ncc4ccc(C(=O)O)cn34)cc2c1=O` have recorded melting point that is 300 °C or more?
Result: Condition met

Request: Could you verify whether the entry Cn1c(=O)n(Cc2ccc(F)cc2)c(=O)c2cc(C(=O)c3nc(-c4cccnc4)c4ccccn34)ccc21 (as salt: hydrochloride) shows melting point of no less than 300 °C?
Result: Condition not met

Request: I'd appreciate it if you could say whether `CCCn1c(C)nc2ccc(C(=O)c3nc(-c4cccc(C(N)=O)c4)c4ccccn34)cc2c1=O` has melting point at least equal to 300 °C.
Result: Condition not met
